# SUBJECT OF TEST: T1, huIL1RAP ECD recombinant protein (human, UniProt Q9NPH3 21-367)
# T1 construct: also called recombinant human IL1RAP-ECD; recombinant human IL1RAP; not shown: C-terminal histidine tag for purification
# ASSAY: Octet BLI, antibody on Protein A biosensor, recombinant huIL1RAP ECD

{"BINDER": "32C12_21A4 (antibody, V domains shown) VH: QVQLVESGGGVVQPGRSLRLSCAASGFTFRNYGIHWVRQAPGKGLEWVAVIWYDGSNKFYADSVKGRFTISRDNSKNTLYLQMNSLRVEDTAVYYCAREEGIAVAPFDYWGQGTLVTVSS VL: DIQMTQSPSSLSASVGDRVAITCRANQSIASYLNWYQQKPGKAPKLLIYGASSLQNGVPSRFSGSGSRTDFTLTISSLQPEDFATYYCQQSYSTEITFGQGTRLEIK", "Kd [nM]": 1.4}
{"BINDER": "37D11_21C2 (antibody, V domains shown) VH: QVQIKESGPGLVKPSETLSLTCAVSGFSFSSGYYWGWIRQPPGKGLEWLGSFFHNGNTYYNPSLRSRVTISVDTSKNHFSLKLTSVTAADTAVYYCAGFGDLPHYHYYVMDVWGQGTTVTVSS VL: EIVLTQSPATLSLSPGERATLSCRASQSVSSYLAWYQQKPGQAPRLLIYDASNRAIGIPARFSGSGSGTDFTLTISSLEPEDFAVYYCQQRSNWPPYTFGQGTKLEIK", "Kd [nM]": 13}
{"BINDER": "16H2_17D2 (antibody, V domains shown) VH: QVQLVESGGGVVQPGGSLRLSCAASGFTFSSHGMHWVRQAPGKGLEWVAVIWYDGSNKFYTDSVQGRFTISRDNSKNTLNLQMNSLRAEDTAVYYCAREGLRAGYYFDFWGQGTLVTVSS VL: DIQMTQSPSSLSASVGDRVTITCRASQRISFYSNWYQQKPGKAPKLLIYAASSLQSGVPSRFSGSGSGTDFTLTISSLQPEDFATYFCQQSHSTPLTFGGGTKLEIK", "Kd [nM]": 0.2}

Ref: patent US20260008856A1
